Molecular target: human alpha1 nicotinic acetylcholine (nACh) receptor (Homo sapiens)
Test: Nicotinic acetylcholine receptor antagonism assay, IONFlux automated patch clamp (Example 203)
Assay type: cell-based
Details: maximum percentage antagonism at maximum concentration tested 100 μM; read-out: Maximum Response
From the text: Cells expressing human alpha1 nicotinic acetylcholine (nACh) receptor (nAChR) were washed and dissociated using Trypsin containing buffer. Cells were then washed and seeded at a density of 3-5 million cells/mL and allowed to grow for 3 days. […] The receptor was then stimulated via addition of acetylcholine (ACh) and activation of the receptor was monitored via the IONFlux automated patch clamp system. […]

compound | unit.of.measurement | Emax at 100 µM
CC(C)N(C)[C@@H]1CC[C@H](N2CC[C@H](Nc3ncnc4ccc(C(F)(F)F)cc34)C2=O)[C@H](NC(=O)[C@H]2C[C@@H](NC(=O)CCOCCOCCOCCNC(=O)[C@H]3CC(=O)N(C)[C@@H]3c3cccnc3)C2)C1 [Example 24] | % | 59.5
CN1C(=O)C[C@H](C(=O)NCCOCCNC(=O)[C@H]2C[C@H](NC(=O)CCOCCC(=O)N[C@@H]3C[C@H](NC(C)(C)C)CC[C@@H]3N3CC[C@H](Nc4ncnc5ccc(C(F)(F)F)cc45)C3=O)C2)[C@H]1c1cccnc1 [Example 188] | % | 53.5
CC(C)N(C)[C@@H]1CC[C@H](N2CC[C@H](Nc3ncnc4ccc(C(F)(F)F)cc34)C2=O)[C@H](NC(=O)[C@H]2CC[C@@H](NC(=O)CCOCCOCCNC(=O)CNC(=O)[C@H]3CC(=O)N(C)[C@@H]3c3cccnc3)CC2)C1 [Example 63] | % | 76.6
CCN1C(=O)C[C@H](C(=O)NCCOCCOCCOCCC(=O)N[C@H]2CC[C@@H](C(=O)N[C@@H]3C[C@H](NC(C)(C)C)CC[C@@H]3N3CC[C@H](Nc4ncnc5ccc(C(F)(F)F)cc45)C3=O)CC2)[C@H]1c1cccnc1 [Example 35] | % | 52.3
CC(C)N(C)[C@@H]1CC[C@H](N2CC[C@H](Nc3ncnc4ccc(C(F)(F)F)cc34)C2=O)[C@H](NC(=O)[C@H]2CC[C@@H](NC(=O)CCOCCCNC(=O)CCCNC(=O)[C@H]3CC(=O)N(C)[C@@H]3c3cccnc3)CC2)C1 [Example 17] | % | 55.1
CC(C)N(C)[C@@H]1CC[C@H](N2CC[C@H](Nc3ncnc4ccc(C(F)(F)F)cc34)C2=O)[C@H](NC(=O)[C@H]2CC[C@H](NC(=O)CCCO[C@H]3CC[C@H](OCCNC(=O)[C@H]4CC(=O)N(C)[C@@H]4c4cccnc4)CC3)CC2)C1 [Example 1] | % | 25.6
CC(C)N(C)[C@@H]1CC[C@H](N2CC[C@H](Nc3ncnc4ccc(C(F)(F)F)cc34)C2=O)[C@H](NC(=O)[C@H]2C[C@@H](NC(=O)CCOCCNC(=O)CCOCCNC(=O)[C@H]3CC(=O)N(C)[C@@H]3c3cccnc3)C2)C1 [Example 44] | % | 51.5
CC(C)N(C)[C@@H]1CC[C@H](N2CC[C@H](Nc3ncnc4ccc(C(F)(F)F)cc34)C2=O)[C@H](NC(=O)CCOCCOCCO[C@H]2CC[C@H](OCCNC(=O)[C@H]3CC(=O)N(C)[C@@H]3c3cccnc3)CC2)C1 [Example 192] | % | 53
CC(C)N(C)[C@@H]1CC[C@H](N2CC[C@H](Nc3ncnc4ccc(C(F)(F)F)cc34)C2=O)[C@H](NC(=O)[C@H]2C[C@H](NC(=O)CCOCCOCCOCCNC(=O)[C@H]3CC(=O)N(C)[C@@H]3c3cccnc3)C2)C1 [Example 27] | % | 53.8
CC(C)N(C)[C@@H]1CC[C@H](N2CC[C@H](Nc3ncnc4ccc(C(F)(F)F)cc34)C2=O)[C@H](NC(=O)[C@H]2C[C@H](NC(=O)CCCO[C@H]3CC[C@H](OCCNC(=O)[C@H]4CC(=O)N(C)[C@@H]4c4cccnc4)CC3)C2)C1 [Example 8] | % | 73.1
CC(C)N(C)[C@@H]1CC[C@H](N2CC[C@H](Nc3ncnc4ccc(C(F)(F)F)cc34)C2=O)[C@H](NC(=O)[C@H]2CC[C@@H](NC(=O)CCOCCNC(=O)CCNC(=O)CCNC(=O)[C@H]3CC(=O)N(C)[C@@H]3c3cccnc3)CC2)C1 [Example 182] | % | 61.9
CC(C)N(C)[C@@H]1CC[C@H](N2CC[C@H](Nc3ncnc4ccc(C(F)(F)F)cc34)C2=O)[C@H](NC(=O)[C@H]2C[C@@H](NC(=O)CCCO[C@H]3CC[C@H](OCCNC(=O)[C@H]4CC(=O)N(C)[C@@H]4c4cccnc4)CC3)C2)C1 [Example 9] | % | 53.9
CC(C)N(C)[C@@H]1CC[C@H](N2CC[C@H](Nc3ncnc4ccc(C(F)(F)F)cc34)C2=O)[C@H](NC(=O)CNC(=O)[C@H]2CC[C@@H](NC(=O)CCOCCOCCNC(=O)[C@H]3CC(=O)N(C)[C@@H]3c3cccnc3)CC2)C1 [Example 137] | % | 62
CC(C)N(C)[C@@H]1CC[C@H](N2CC[C@H](Nc3ncnc4ccc(C(F)(F)F)cc34)C2=O)[C@H](NC(=O)CCOCCNC(=O)CCCO[C@H]2CC[C@H](OCCNC(=O)[C@H]3CC(=O)N(C)[C@@H]3c3cccnc3)CC2)C1 [Example 7] | % | 95
CC(C)N(C)[C@@H]1CC[C@H](N2CC[C@H](Nc3ncnc4ccc(C(F)(F)F)cc34)C2=O)[C@H](NC(=O)[C@H]2CC[C@@H](NC(=O)CCCC(=O)NCCCOCCCNC(=O)[C@H]3CC(=O)N(C)[C@@H]3c3cccnc3)CC2)C1 [Example 18] | % | 44.9
CC(C)N(C)[C@@H]1CC[C@H](N2CC[C@H](Nc3ncnc4ccc(C(F)(F)F)cc34)C2=O)[C@H](NC(=O)C2CCC(NC(=O)CCOCCNC(=O)CCOCCNC(=O)[C@H]3CC(=O)N(C)[C@@H]3c3cccnc3)CC2)C1 (stereo partly shown) [Example 48] | % | 77

* * *

Quick reference for log10 of IC50 among some compounds
Biological target: human alpha1 nicotinic acetylcholine (nACh) receptor (Homo sapiens, UniProt P02708)
Sequence (P02708 21-457): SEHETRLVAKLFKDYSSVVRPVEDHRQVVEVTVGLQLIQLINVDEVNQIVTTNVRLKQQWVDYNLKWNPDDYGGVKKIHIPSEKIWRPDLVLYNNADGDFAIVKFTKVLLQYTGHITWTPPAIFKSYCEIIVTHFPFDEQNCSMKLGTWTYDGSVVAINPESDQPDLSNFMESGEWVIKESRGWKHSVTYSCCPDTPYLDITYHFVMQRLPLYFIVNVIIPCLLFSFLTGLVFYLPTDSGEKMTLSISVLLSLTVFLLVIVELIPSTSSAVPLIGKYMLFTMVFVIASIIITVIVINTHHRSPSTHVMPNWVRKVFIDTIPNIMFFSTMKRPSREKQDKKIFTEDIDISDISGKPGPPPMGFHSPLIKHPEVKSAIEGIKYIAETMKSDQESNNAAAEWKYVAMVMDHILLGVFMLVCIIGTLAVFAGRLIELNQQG
Sequence (P11230 24-501 partner): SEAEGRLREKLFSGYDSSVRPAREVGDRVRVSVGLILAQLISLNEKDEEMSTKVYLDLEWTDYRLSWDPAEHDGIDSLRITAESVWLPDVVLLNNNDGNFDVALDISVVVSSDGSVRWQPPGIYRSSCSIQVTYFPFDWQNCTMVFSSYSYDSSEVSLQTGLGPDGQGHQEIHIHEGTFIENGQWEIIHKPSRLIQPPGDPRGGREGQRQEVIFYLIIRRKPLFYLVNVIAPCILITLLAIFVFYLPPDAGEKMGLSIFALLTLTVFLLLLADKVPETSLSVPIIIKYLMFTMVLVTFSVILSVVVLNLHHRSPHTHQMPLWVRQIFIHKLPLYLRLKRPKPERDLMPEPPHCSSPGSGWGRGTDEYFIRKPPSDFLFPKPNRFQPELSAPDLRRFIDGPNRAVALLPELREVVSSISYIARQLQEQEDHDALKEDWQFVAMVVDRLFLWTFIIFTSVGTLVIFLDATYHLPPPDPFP
Sequence (Q07001 22-517 partner): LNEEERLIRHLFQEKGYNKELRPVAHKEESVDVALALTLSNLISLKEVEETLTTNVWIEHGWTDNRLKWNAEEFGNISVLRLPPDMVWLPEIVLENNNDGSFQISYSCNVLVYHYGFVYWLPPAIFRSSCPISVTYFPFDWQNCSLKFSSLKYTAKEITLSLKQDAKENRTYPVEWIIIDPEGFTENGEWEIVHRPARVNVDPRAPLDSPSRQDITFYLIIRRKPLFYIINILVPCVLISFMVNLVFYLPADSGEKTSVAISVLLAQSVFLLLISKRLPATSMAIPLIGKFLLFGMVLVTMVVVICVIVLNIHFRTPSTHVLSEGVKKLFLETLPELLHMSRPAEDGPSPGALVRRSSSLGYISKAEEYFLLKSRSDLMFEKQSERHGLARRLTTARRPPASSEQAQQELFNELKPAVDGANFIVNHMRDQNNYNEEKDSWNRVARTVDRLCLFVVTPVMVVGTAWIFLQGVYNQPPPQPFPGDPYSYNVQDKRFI
Assay: Nicotinic acetylcholine receptor antagonism assay, IONFlux automated patch clamp (Example 203)
Details: antagonism of ACh-stimulated human alpha1 nAChR current, patch clamp
observed.property: log10 of IC50 (log10 of the value in µM)

compound | assay.result
CC(C)N(C)[C@@H]1CC[C@H](N2CC[C@H](Nc3ncnc4ccc(C(F)(F)F)cc34)C2=O)[C@H](NC(=O)CCOCCNC(=O)CCOCCNC(=O)COCCNC(=O)[C@H]2CC(=O)N(C)[C@@H]2c2cccnc2)C1 | 1.59
CC(C)N(C)[C@@H]1CC[C@H](N2CC[C@H](Nc3ncnc4ccc(C(F)(F)F)cc34)C2=O)[C@H](NC(=O)COCCNC(=O)COCCNC(=O)COCCNC(=O)[C@H]2CC(=O)N(C)[C@@H]2c2cccnc2)C1 | 1.72
CC(C)N(C)[C@@H]1CC[C@H](N2CC[C@H](Nc3ncnc4ccc(C(F)(F)F)cc34)C2=O)[C@H](NC(=O)[C@H]2C[C@@H](NC(=O)CCCO[C@H]3CC[C@H](OCCNC(=O)[C@H]4CC(=O)N(C)[C@@H]4c4cccnc4)CC3)C2)C1 | 1.91
CC(C)N(C)[C@@H]1CC[C@H](N2CC[C@H](Nc3ncnc4ccc(C(F)(F)F)cc34)C2=O)[C@H](NC(=O)CCOCCN2CCC3(CCC(C(=O)NCCNC(=O)[C@H]4CC(=O)N(C)[C@@H]4c4cccnc4)CC3)CC2)C1 | 0.81
CC(C)N(C)[C@@H]1CC[C@H](N2CC[C@H](Nc3ncnc4ccc(C(F)(F)F)cc34)C2=O)[C@H](NC(=O)[C@H]2CC[C@@H](NC(=O)CCOCCNC(=O)CCNC(=O)CCNC(=O)[C@H]3CC(=O)N(C)[C@@H]3c3cccnc3)CC2)C1 | 1.88
CC(C)N(C)[C@@H]1CC[C@H](N2CC[C@H](Nc3ncnc4ccc(C(F)(F)F)cc34)C2=O)[C@H](NC(=O)C2CCC(NC(=O)CCOCCNC(=O)CCOCCNC(=O)[C@H]3CC(=O)N(C)[C@@H]3c3cccnc3)CC2)C1 (stereo partly shown) | 1.50
CC(C)N(C)[C@@H]1CC[C@H](N2CC[C@H](Nc3ncnc4ccc(C(F)(F)F)cc34)C2=O)[C@H](NC(=O)c2ccc(C3CCN(CCOCCOCCNC(=O)[C@H]4CC(=O)N(C)[C@@H]4c4cccnc4)CC3)cn2)C1 | 0.67
CC(C)N(C)[C@@H]1CC[C@H](N2CC[C@H](Nc3ncnc4ccc(C(F)(F)F)cc34)C2=O)[C@H](NC(=O)[C@H]2CC[C@@H](NC(=O)CCOCCOCCNC(=O)CNC(=O)[C@H]3CC(=O)N(C)[C@@H]3c3cccnc3)CC2)C1 | 1.59
